test: tail flick test (mouse tail flick); assay type: in vivo; details: Mus musculus
Give measured ED50 for each item. Keep answers brief.
Give bare numbers, in mg/kg.

| COMPOUND | READOUT_UNIT | ED50 |
| --- | --- | --- |
| CCCCCC(C)C(C)c1cc(OC(C)=O)c(C2C=C(COC(C)=O)C3CC2C3(C)C)c(OC(C)=O)c1 (single isomer, unassigned) [VIIIb(+)] | mg/kg | 50 |

Shift focus to the following entry.
QUERY: Find the recorded ED50 belonging to CCCCCCC(C)(C)c1cc(OC(C)=O)c(C2C=C(COC(C)=O)C3CC2C3(C)C)c(OC(C)=O)c1 (single isomer, unassigned) [VIIIa(+)] and report it.
RESULT: 50

* * *

assay: acetic acid induced writhing test (mouse writhing); assay type: in vivo
Please enter YES where Mouse writhing ED50 is greater than or equal to 10 mg/kg, and NO where it is lower.

Solved entries:
| MOLECULE | CLASS |
| --- | --- |
| CCCCCCC(C)(C)c1cc(OC(C)=O)c(C2C=C(COC(C)=O)C3CC2C3(C)C)c(OC(C)=O)c1 (single isomer, unassigned) [VIIIa(-)] | YES |
| CCCCCCC(C)(C)c1cc(O)c(C2C=C(CO)C3CC2C3(C)C)c(O)c1 (single isomer, unassigned) [VIIa(-)] | NO |
| CCCCCCC(C)(C)c1cc(OC(C)=O)c(C2C=C(COC(=O)C(C)(C)C)C3CC2C3(C)C)c(OC(C)=O)c1 (single isomer, unassigned) [VIIIc(-)] | YES |

QUERY: Hi team, for CCCCCCC(C)(C)c1cc(O)c(C2CC(C)C3CC2C3(C)C)c(O)c1 (stereo not drawn) [Xa(+)] , is the recorded Mouse writhing ED50 at or above 10 mg/kg?
RESULT: YES

QUERY: Hi team, for CCCCCC(C)C(C)c1cc(O)c(C2C=C(CO)C3CC2C3(C)C)c(O)c1 (single isomer, unassigned) [VIIb(-)] , is the recorded Mouse writhing ED50 at or above 10 mg/kg?
RESULT: NO

QUERY: Hi team, for CCCCCCC(C)(C)c1cc(O)c(C2CC(C)C3CC2C3(C)C)c(O)c1 (stereo not drawn) [Xa(-)] , is the recorded Mouse writhing ED50 at or above 10 mg/kg?
RESULT: NO

QUERY: Hi team, for CCCCCC(C)C(C)c1cc(O)c(C2C=C(COC(=O)C(C)(C)C)C3CC2C3(C)C)c(O)c1 (single isomer, unassigned) [VId(-)] , is the recorded Mouse writhing ED50 at or above 10 mg/kg?
RESULT: NO

QUERY: Hi team, for CCCCCCC(C)(C)c1cc(O)c(C2C=C(COC(=O)C(C)(C)C)C3CC2C3(C)C)c(O)c1 (single isomer, unassigned) [VIc(-)] , is the recorded Mouse writhing ED50 at or above 10 mg/kg?
RESULT: NO

QUERY: Hi team, for CCCCCC(C)C(C)c1cc(O)c(C2CC(C)C3CC2C3(C)C)c(O)c1 (stereo not drawn) [Xb(+)] , is the recorded Mouse writhing ED50 at or above 10 mg/kg?
RESULT: NO

QUERY: Hi team, for CCCCCC(C)C(C)c1cc(OC(C)=O)c(C2C=C(COC(=O)C(C)(C)C)C3CC2C3(C)C)c(OC(C)=O)c1 (single isomer, unassigned) [VIIId(-)] , is the recorded Mouse writhing ED50 at or above 10 mg/kg?
RESULT: YES

* * *

Give measured Rat foot pressure ED50 for each item. Keep answers brief.
Assay: foot pressure test (rat foot pressure)
Type: in vivo
Description: The analgetic activity was tested by the acetic acid induced writhing test (Sofia et al., J. Pharmacol.Expt.Therap. 18, 646, 1973), by the tail flick test (Grotto et al., Arch Intern.Pharmacodyn. 170, 257, 1967) and by the foot pressure test (Randall and Selito, Arch, Int. Pharmacodyn. 409, 1957). The central nervous system action was tested by the mouse ring test (Pertwee, Brit. J. Pharmacol. 46, 753, 1972).

| MOLECULE | Rat foot pressure ED50 |
| --- | --- |
| CCCCCCC(C)(C)c1cc(OC(C)=O)c(C2C=C(COC(C)=O)C3CC2C3(C)C)c(OC(C)=O)c1 (single isomer, unassigned) [VIIIa(-)] | 50 mg/kg |
| CCCCCCC(C)(C)c1cc(O)c(C2CC(C)C3CC2C3(C)C)c(O)c1 (stereo not drawn) [Xa(-)] | ~ 50 mg/kg |
| CCCCCC(C)C(C)c1cc(O)c(C2CC(C)C3CC2C3(C)C)c(O)c1 (stereo not drawn) [Xb(+)] | ~ 50 mg/kg |
| CCCCCC(C)C(C)c1cc(O)c(C2C=C(COC(C)=O)C3CC2C3(C)C)c(O)c1 (single isomer, unassigned) [VIb(-)] | 25 mg/kg |
| CCCCCCC(C)(C)c1cc(O)c(C2CC(C)C3CC2C3(C)C)c(O)c1 (stereo not drawn) [Xa(+)] | ~ 50 mg/kg |
| CCCCCC(C)C(C)c1cc(OC(C)=O)c(C2C=C(COC(=O)C(C)(C)C)C3CC2C3(C)C)c(OC(C)=O)c1 (single isomer, unassigned) [VIIId(-)] | > 50 mg/kg |

Shift focus to the following entry.
QUERY: Find the recorded Rat foot pressure ED50 belonging to CCCCCCC(C)(C)c1cc(O)c(C2C=C(COC(=O)C(C)(C)C)C3CC2C3(C)C)c(O)c1 (single isomer, unassigned) [VIc(-)] and report it.
RESULT: 30 mg/kg

* * *

Give measured Rat foot pressure ED50 for each item. Keep answers brief.
experiment: foot pressure test (rat foot pressure); format: in vivo
Give bare numbers, in mg/kg.

| MOLECULE | VALUE_MEASURED |
| --- | --- |
| CCCCCC(C)C(C)c1cc(O)c(C2C=C(CO)C3CC2C3(C)C)c(O)c1 (single isomer, unassigned) [VIIb(-)] | 25 |
| CCCCCC(C)C(C)c1cc(O)c(C2C=C(COC(=O)C(C)(C)C)C3CC2C3(C)C)c(O)c1 (single isomer, unassigned) [VId(-)] | 30 |
| CCCCCCC(C)(C)c1cc(O)c(C2C=C(COC(C)=O)C3CC2C3(C)C)c(O)c1 (single isomer, unassigned) [VIa(-)] | 25 |
| CCCCCC(C)C(C)c1cc(OC(C)=O)c(C2C=C(COC(C)=O)C3CC2C3(C)C)c(OC(C)=O)c1 (single isomer, unassigned) [VIIIb(-)] | 50 |

Shift focus to the following entry.
QUERY: Find the recorded Rat foot pressure ED50 belonging to CCCCCCC(C)(C)c1cc(O)c(C2C=C(CO)C3CC2C3(C)C)c(O)c1 (single isomer, unassigned) [VIIa(-)] and report it.
RESULT: 25

* * *

Assay: tail flick test (mouse tail flick)
Format: in vivo
Details: Mus musculus
Protocol: The analgetic activity was tested by the acetic acid induced writhing test (Sofia et al., J. Pharmacol.Expt.Therap. 18, 646, 1973), by the tail flick test (Grotto et al., Arch Intern.Pharmacodyn. 170, 257, 1967) and by the foot pressure test (Randall and Selito, Arch, Int. Pharmacodyn. 409, 1957). The central nervous system action was tested by the mouse ring test (Pertwee, Brit. J. Pharmacol. 46, 753, 1972).
VALUE_TYPE: ED50

Record excerpt, results attached:
| COMPOUND | ED50 |
| --- | --- |
| CCCCCC(C)C(C)c1cc(O)c(C2CC(C)C3CC2C3(C)C)c(O)c1 (single isomer, unassigned) [Xb(-)] | ~50 mg/kg |
| CCCCCC(C)C(C)c1cc(OC(C)=O)c(C2C=C(COC(=O)C(C)(C)C)C3CC2C3(C)C)c(OC(C)=O)c1 (single isomer, unassigned) [VIIId(+)] | > 50 mg/kg |

Shift focus to the following entry.
QUERY: Find the recorded ED50 belonging to CCCCCCC(C)(C)c1cc(OC(C)=O)c(C2C=C(COC(=O)C(C)(C)C)C3CC2C3(C)C)c(OC(C)=O)c1 (single isomer, unassigned) [VIIIc(+)] and report it.
RESULT: > 50 mg/kg

* * *

assay: acetic acid induced writhing test (mouse writhing); format: in vivo
Give measured Mouse writhing ED50 for each item. Keep answers brief.
Numbers only, in mg/kg.

| MOLECULE | Mouse writhing ED50, mg/kg |
| --- | --- |
| CCCCCCC(C)(C)c1cc(O)c(C2C=C(COC(C)=O)C3CC2C3(C)C)c(O)c1 (single isomer, unassigned) [VIa(-)] | 10 |
| CCCCCC(C)C(C)c1cc(OC(C)=O)c(C2C=C(COC(C)=O)C3CC2C3(C)C)c(OC(C)=O)c1 (single isomer, unassigned) [VIIIb(-)] | 10 |

QUERY: Find the recorded Mouse writhing ED50 belonging to CCCCCC(C)C(C)c1cc(O)c(C2C=C(COC(C)=O)C3CC2C3(C)C)c(O)c1 (single isomer, unassigned) [VIb(-)] and report it.
RESULT: 10
